System: AP-1 induced transcriptional activity
Assay Method Text: Cellular Transrepressional Assay (AP-1 luciferase reporter, PMA-activated A549 cells)
Format: cell-based
Assay Context: maximum inhibition, Cellular Transrepression Assay
Given measured AP-1 Max % inh (Cellular Transrepression Assay), output yes (1) if it is greater than or equal to 60% and no (0) if not.

1) CC(C)N(C)C(=O)c1ccc(-c2ccc3c(n2)Oc2ccccc2[C@@H]3C(C)(C)C(=O)Nc2nncs2)cc1F [Example 329] ... no (0)
2) CC(C)(C(=O)Nc1nncs1)[C@H]1c2ccccc2Oc2nc(-c3ccc(C(=O)N4CCOCC4)cc3)ccc21 [Example 257] ... yes (1)
3) COc1ccc(Cc2csc(NC(=O)C(C)(C)C3c4ccccc4Oc4cc(OC)ccc43)n2)cc1 (stereo not shown) [Example 53] ... yes (1)
4) CC(=O)c1ccc(-c2ccc3c(n2)Oc2ccccc2C3C(C)(C)C(=O)Nc2nncs2)cc1 (stereo not shown) [Example 201] ... yes (1)
5) CC(C)Cc1ccc(-c2ccc3c(n2)Oc2ccccc2C3C(C)(C)C(=O)Nc2nncs2)cc1 (stereo not shown) [Example 208] ... no (0)
6) CC(C)(C(=O)Nc1nncs1)C1c2ccccc2Oc2cc(OC(=O)NCCCc3ccccc3)ccc21 (stereo not shown) [Example 380] ... no (0)
7) Cc1ccc(-c2ccc3c(n2)Oc2ccccc2C3C(C)(C)C(=O)Nc2nncs2)cc1 (stereo not shown) [Example 170] ... no (0)

---

Target Or Test System: human full-length glucocorticoid receptor (Homo sapiens)
Assay Method Text: Glucocorticoid Receptor Binding Assay (I), fluorescence polarization, Fluormone GS Red
Set-up: purified human recombinant full-length glucocorticoid receptor; purchased Invitrogen Part #2893
Assay Context: GR Binding Assay (I); read-out: GR (Ki, nM) (GR Binding Assay (I))
Recorded Ki, one value per entry.
Measure Name: Ki (nM)

1) CC(C)(C(=O)Nc1nncs1)[C@H]1c2ccccc2Oc2nc(-c3ccc(C(=O)N4CCc5ccccc5C4)cc3)ccc21 ... 10.8
2) CC(C)(C(=O)Nc1nncs1)C1c2ccccc2Oc2cc(-c3ccc(C(=O)O)cn3)ccc21 (stereo not shown) ... 19.8
3) CC(=O)NC(C)(C)c1ccc(-c2ccc3c(n2)Oc2ccccc2[C@@H]3C(C)(C)C(=O)Nc2nncs2)cc1 ... 64.1
4) Cc1nnc(NC(=O)C(C)(C)[C@H]2c3ccccc3Oc3nc(-c4ccc(OC(C)C)c(Cl)c4)ccc32)s1 ... 16.4

---

Tested on: AP-1 induced transcriptional activity
Assay Method Text: Cellular Transrepressional Assay (AP-1 luciferase reporter, PMA-activated A549 cells)
Type: cell-based
Assay Context: maximum inhibition, Cellular Transrepression Assay
Measure Name: AP-1 Max % inh (Cellular Transrepression Assay) (%)

1) CC(C)(C(=O)Nc1nncs1)[C@H]1c2ccccc2Oc2nc(-c3ccc(C(=O)N4CCCC4)c(F)c3)ccc21 ... 52.71
2) CC(C)Oc1ccc(-c2ccc3c(n2)Oc2ccccc2C3C(C)(C)C(=O)Nc2nncs2)cc1F (stereo not shown) ... 49.63
3) COC1CCN(C(=O)c2ccc(-c3ccc4c(n3)Oc3ccccc3[C@@H]4C(C)(C)C(=O)Nc3nncs3)cc2)CC1 ... 34.95
4) CC(C)(C(=O)Nc1nncs1)C1c2ccccc2Oc2cc(OC(=O)NCCc3cccs3)ccc21 (stereo not shown) ... 45.09

---

Listing of recorded Ki by entry.
Target Or Test System: human full-length glucocorticoid receptor (Homo sapiens)
Sequence (P04150 1-777): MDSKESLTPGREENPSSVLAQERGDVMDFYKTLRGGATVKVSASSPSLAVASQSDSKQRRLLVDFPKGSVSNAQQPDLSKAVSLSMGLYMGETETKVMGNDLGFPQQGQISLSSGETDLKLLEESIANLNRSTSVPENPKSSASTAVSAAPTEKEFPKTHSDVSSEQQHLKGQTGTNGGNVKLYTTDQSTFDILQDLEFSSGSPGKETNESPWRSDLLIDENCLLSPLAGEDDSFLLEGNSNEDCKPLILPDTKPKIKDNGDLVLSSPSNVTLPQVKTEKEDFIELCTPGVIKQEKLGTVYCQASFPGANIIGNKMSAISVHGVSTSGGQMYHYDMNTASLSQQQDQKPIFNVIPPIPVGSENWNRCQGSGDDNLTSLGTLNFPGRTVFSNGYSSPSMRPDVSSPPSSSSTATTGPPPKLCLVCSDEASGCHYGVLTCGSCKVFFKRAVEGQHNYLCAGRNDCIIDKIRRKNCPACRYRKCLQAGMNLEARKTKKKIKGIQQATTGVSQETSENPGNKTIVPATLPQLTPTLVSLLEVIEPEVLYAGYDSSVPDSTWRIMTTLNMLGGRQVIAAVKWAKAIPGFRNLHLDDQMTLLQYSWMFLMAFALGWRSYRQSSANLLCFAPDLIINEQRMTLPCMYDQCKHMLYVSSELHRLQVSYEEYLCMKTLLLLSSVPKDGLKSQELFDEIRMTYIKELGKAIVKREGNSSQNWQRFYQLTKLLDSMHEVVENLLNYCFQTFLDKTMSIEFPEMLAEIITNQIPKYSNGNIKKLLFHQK
Assay Method Text: Glucocorticoid Receptor Binding Assay (I), fluorescence polarization, Fluormone GS Red
Parameters: purified human recombinant full-length glucocorticoid receptor; purchased Invitrogen Part #2893
Assay Context: GR Binding Assay (I); read-out: GR (Ki, nM) (GR Binding Assay (I))
Measure Name: Ki (nM)

1) CC(C)(C(=O)Nc1nncs1)[C@H]1c2ccccc2Oc2nc(-c3ccc(S(C)(=O)=O)cc3)ccc21 ... 1.37
2) CN(C)C(=O)c1ccc(-c2ccc3c(n2)Oc2ccccc2[C@@H]3C(C)(C)C(=O)Nc2nccs2)cc1 ... 1.01
3) CC(C)(C(=O)Nc1nncs1)[C@H]1c2ccccc2Oc2nc(-c3ccc(C(=O)NCCc4ccccc4)cc3)ccc21 ... 20.1
4) CC(C)(C(=O)Nc1nncs1)[C@H]1c2ccccc2Oc2nc(-c3ccc(C(=O)N4CCCC(F)(F)C4)cc3)ccc21 ... 16.8

---

Target Or Test System: human full-length glucocorticoid receptor (Homo sapiens)
Assay Method Text: Glucocorticoid Receptor Binding Assay (II), fluorescence polarization, FITC-dexamethasone
Design: recombinantly expressed human full-length glucocorticoid receptor; purchased PanVera Co., Madison P2816
Assay Context: GR Binding Assay (II); read-out: GR (Ki, nM) (GR Binding Assay (II))
Measured Ki accompanies every entry in the list below.
Measure Name: Ki

1. CC(C)(C(=O)Nc1nccs1)C1c2ccccc2Oc2nc(Cl)ccc21 (centres unmarked) [Example 75] ... 29 nM
2. COc1cccc2c1Oc1ccccc1C2C(C)(C)C(=O)Nc1nccs1 (centres unmarked) [Example 84] ... 104 nM
3. Cc1nc(NC(=O)C(C)(C)[C@H]2c3ccccc3Oc3cc(O)ccc32)sc1C [Example 86] ... 32.9 nM
4. Cc1cnc(NC(=O)C(C)(C)[C@@H]2c3ccccc3Oc3cc(O)ccc32)s1 [Example 92] ... 1200 nM
5. CC(C)(C(=O)Nc1nncs1)[C@H]1c2ccccc2Oc2nc(N3CCCCCC3)ccc21 [Example 146] ... 37 nM
6. CC(C)(C(=O)Nc1nncs1)[C@H]1c2ccccc2Oc2nc(N3CCCC(c4ccccc4)C3)ccc21 (some centres unmarked) [Example 147] ... 4030 nM
7. CC(C)Nc1ccc2c(n1)Oc1ccccc1C2C(C)(C)C(=O)Nc1nccs1 (centres unmarked) [Example 157] ... 186 nM
8. CC(C)(C(=O)Nc1nncs1)[C@@H]1c2ccccc2Oc2nc(N3CCC4(CC3)OCCO4)ccc21 [Example 135] ... 537 nM
9. CNc1ccc2c(n1)Oc1ccccc1C2C(C)(C)C(=O)Nc1nccs1 (centres unmarked) [Example 127] ... 29.7 nM
10. CC(C)(C(=O)Nc1nncs1)[C@H]1c2ccccc2Oc2nc(-c3cccc4ccccc34)ccc21 [Example 177] ... 460 nM
11. COc1ccc2c(c1)Oc1ccccc1[C@@H]2C(C)(C)C(=O)Nc1nncs1 [Example 62] ... 58 nM
12. CC(C)(C(=O)Nc1nncs1)[C@H]1c2ccccc2Oc2nc(N3CCC(=O)CC3)ccc21 [Example 161] ... 36.6 nM
13. CC(C)(C(=O)Nc1nncs1)[C@H]1c2ccccc2Oc2cc(C#N)ccc21 [Example 112] ... 9.3 nM
14. CC(C)(C(=O)Nc1nncs1)[C@H]1c2ccccc2Oc2nc(N3CCCCC3)ccc21 [Example 138] ... 11.4 nM
15. Cc1csc(NC(=O)C(C)(C)[C@@H]2c3ccccc3Oc3cc(O)ccc32)n1 [Example 93] ... 1270 nM
16. Cc1csc(NC(=O)C(C)(C)C2c3ccccc3Oc3ncccc32)n1 (centres unmarked) [Example 70] ... 762 nM
17. CC(C)(C(=O)Nc1nncs1)[C@H]1c2ccccc2Oc2nc(-c3ccccc3)ccc21 [Example 171] ... 10.2 nM

---

Target Or Test System: human full-length glucocorticoid receptor (Homo sapiens)
Assay Method Text: Glucocorticoid Receptor Binding Assay (I), fluorescence polarization, Fluormone GS Red
Set-up: purified human recombinant full-length glucocorticoid receptor; purchased Invitrogen Part #2893
Assay Context: GR Binding Assay (I); read-out: GR (Ki, nM) (GR Binding Assay (I))
Measure Name: Ki (nM)

1. CC(C)(C(=O)Nc1nncs1)[C@H]1c2ccccc2Oc2nc(-c3ccc(C(=O)NC4CCCC4)cc3)ccc21 [Example 351] ... 147
2. CC(C)(C(=O)Nc1nncs1)C1c2ccccc2Oc2cc(NC(=O)Nc3nccs3)ccc21 (stereo not shown) [Example 123] ... 17.8
3. CN1CCN(C(=O)c2ccc(-c3ccc4c(n3)Oc3ccccc3[C@@H]4C(C)(C)C(=O)Nc3nncs3)cc2)CC1 [Example 256] ... 180
4. CN(C)C(=O)c1ccc(-c2ccc3c(n2)Oc2ccccc2[C@@H]3C(C)(C)C(=O)Nc2nncs2)s1 [Example 462] ... 3.78
5. CC(=O)N[C@@H]1CCN(C(=O)c2ccc(-c3ccc4c(n3)Oc3ccccc3[C@@H]4C(C)(C)C(=O)Nc3nncs3)cc2)C1 [Example 306] ... 9.85
6. CC(C)(C(=O)Nc1nncs1)[C@H]1c2ccccc2Oc2nc(-c3cc4ccccc4o3)ccc21 [Example 216] ... 4.14
